Provenance of the data: PubChem BioAssay (EPA / NIEHS)

Assay: IUF_NPC2-5_cell_number_120hr: Cell Number Assessment at 120 hours in the Leibniz Research Institute for Environmental Medicine (IUF) Neural Progenitor Cell Migration and Differentiation Assay (NPC2-5) (AID 2284308);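 also: count of Hoechst-stained nuclei in migration zone around plated human neural progenitor spheres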
Active and inactive are the calls of the source. The calls were made as follows: active = hit-call score of the fitted dose curve at least 0.9, where 1 is the maximum; inactive = score below 0.9.
API: response.call in T (active), F (inactive)

CO/N=C(/C(=O)OC)c1ccccc1COc1ccccc1C | T
CCOc1ccc(C(C)(C)COCc2cccc(Oc3ccccc3)c2)cc1 | F
O=C(O)C(F)(OC(F)(F)C(F)(F)C(F)(F)F)C(F)(F)F (centres undefined) | F

What was the test verdict on CCCCC(CC)COP(=O)(Oc1ccccc1)Oc1ccccc1 (centres undefined) ?
F
